All values here come from patent US20250230147A1.

biological target: Cbl-b (Homo sapiens (Human), UniProt Q13191); experiment: Cbl-b LCK Ub TR-FRET assay (Cbl-b Lck HTRF); assay type: biochemical
Sequence (Q13191 40-426): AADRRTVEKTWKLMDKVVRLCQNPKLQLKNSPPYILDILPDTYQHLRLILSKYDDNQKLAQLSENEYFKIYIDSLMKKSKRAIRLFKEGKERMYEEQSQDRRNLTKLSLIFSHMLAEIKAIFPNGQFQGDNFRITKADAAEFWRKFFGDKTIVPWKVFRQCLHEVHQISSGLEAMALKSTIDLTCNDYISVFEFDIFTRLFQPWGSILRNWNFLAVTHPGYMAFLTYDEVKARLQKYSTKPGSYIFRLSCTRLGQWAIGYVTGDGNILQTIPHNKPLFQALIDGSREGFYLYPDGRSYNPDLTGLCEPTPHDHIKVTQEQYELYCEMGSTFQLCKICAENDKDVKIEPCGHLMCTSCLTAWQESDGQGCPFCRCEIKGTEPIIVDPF
Structures can show the parent of a compound that is named as a salt.
value-kind: IC50
Phrase the answer as number then unit, nothing more needed.

Cn1cnc(CNc2cc(C3(Cc4nncn4C)CCC3)cc(N3Cc4c(cc(CNC5(C)CCC5)cc4C(F)(F)F)C3=O)n2)c1 [Compound 320] has a reported IC50 of 21 nM

Field IC50 (entry C[C@@H]1CN(Cc2cc3c(c(C(F)(F)F)c2)CN(c2cccc(C4(Cc5nncn5C)CC(F)(F)C4)c2)C3=O)CCN1 [Compound 424] ) reads 42 nM

Input Cn1cnnc1CC1(c2cccc(N3Cc4c(cc(CNC(C)(C)C)cc4C(F)(F)F)C3=O)c2)CC(F)(F)C1 [Compound 283] . Output IC50: 53 nM

IC50 recorded for this molecule, CC(C)[C@H]1CN(C)CCN1Cc1cc2c(c(C(F)(F)F)c1)CN(c1cc(C3(Cc4nncn4C)CC(F)(F)C3)cc(N(C)C)n1)C2=O [Compound 280] , is 12 nM

Kindly note the recorded IC50 for CC(C)[C@H]1CN(C)CCN1Cc1cc2c(c(C(F)(F)F)c1)CN(c1cccc(C3(Cc4nncn4C(F)F)COC3)c1)C2=O [Compound 266] , which is 13 nM

Cn1cnnc1[C@H](F)C1(c2cccc(N3Cc4c(cc(CNC5(C)CCC5)cc4C(F)F)C3=O)c2)COC1 [Compound 249, formate] yielded IC50 of 12 nM

The molecule CN1CC2CC(C1)N2Cc1cc2c(c(C(F)(F)F)c1)CN(c1cccc(C3(Cc4nncn4C)CC(F)(F)C3)c1)C2=O [Compound 412] showed IC50 equal to 50 nM
